The origin of these recorded values is paper doi:10.1101/755678.

tested system: RagAB complex from wild-type P. gingivalis W83, 8×His-tag on the C terminus of RagB (Porphyromonas gingivalis W83)
protocol text: MST
pKd: −log10 of the molar value.
value kind: pKd

[
  {
    "binder": "KATAEALKKALEEAGAEVELK [P21 peptide (21 residues from the C-terminus of ribosomal protein L7)]",
    "numeric readout": 6.40
  }
]
